Target: TNIK (Homo sapiens, UniProt Q9UKE5)
Construct: purchased Promega V4158
Sequence (Q9UKE5 1-367 limits assumed): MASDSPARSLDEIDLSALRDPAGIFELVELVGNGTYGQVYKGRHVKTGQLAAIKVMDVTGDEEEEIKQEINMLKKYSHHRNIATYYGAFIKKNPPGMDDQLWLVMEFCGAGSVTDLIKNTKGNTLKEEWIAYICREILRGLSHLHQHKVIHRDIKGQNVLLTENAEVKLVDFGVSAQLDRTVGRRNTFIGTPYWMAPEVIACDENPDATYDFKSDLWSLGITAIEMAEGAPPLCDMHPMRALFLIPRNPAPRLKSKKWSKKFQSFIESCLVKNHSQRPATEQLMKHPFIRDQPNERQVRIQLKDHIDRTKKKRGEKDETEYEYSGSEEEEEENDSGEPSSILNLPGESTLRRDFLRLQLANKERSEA
Test: ADP-Glo Kinase Assay, inhibition activity on TNIK
Assay type: biochemical
Conditions: read-out: TNIK

MOLECULE	IC50
O=C(Nc1ccc(-c2ccccc2)c2c1C(=O)NC2)c1ccc(NCCCN2CCOCC2)cc1 [Example 327]	700 nM
O=C(Nc1ccc([N+](=O)[O-])cc1)Nc1ccc(-c2ccccc2)c2c1C(=O)NC2 [Example 235]	4600 nM
CC(=O)c1ccc(-c2ccc(N)c3c2CNC3=O)cc1 [Example 64]	> 20000 nM
COc1ccccc1-c1ccc(NC(=O)c2ccc(NCCCCO)cc2)c2c1CNC2=O [Example 356]	250 nM
O=C(Nc1ccc(-c2ccccc2F)c2c1C(=O)NC2)c1ccccc1 [Example 149]	3800 nM
O=C(Nc1ccc(-c2cccc(Cl)c2)c2c1C(=O)NC2)c1ccccc1 [Example 180]	13700 nM
O=C(Nc1ccc(-c2ccccc2)c2c1C(=O)NC2)c1ccncc1 [Example 211]	700 nM
CC(C)(C)c1ccc(-c2ccc(NC(=O)c3ccccc3)c3c2CNC3=O)cc1 [Example 3]	> 20000 nM
COc1ccccc1Nc1ccc(NC(=O)c2ccc(NCCN3CCCC3)cc2)c2c1CNC2=O [Example 474]	440 nM
O=C(Nc1ccc(-c2ccccc2O)c2c1C(=O)NC2)c1ccc(NCCCCO)cc1 [Example 357]	640 nM
CN(C)CCNc1ccc(C(=O)Nc2ccc(Br)c3c2C(=O)NC3)cc1 [Example 281]	2420 nM
O=C(Nc1ccc(Nc2cccc(Cl)c2)c2c1C(=O)NC2)c1ccc(F)cc1 [Example 418]	1170 nM
O=C(Nc1ccc(-c2cccc(F)c2F)c2c1C(=O)NC2)c1ccc(NCCN2CCCC2)cc1 [Example 364]	180 nM
O=C1NCc2c(-c3ccccc3)ccc(NS(=O)(=O)c3ccc(F)cc3)c21 [Example 251]	> 20000 nM
O=C(Nc1ccc(-c2ccccc2)c2c1C(=O)NC2)c1sccc1Br [Example 157]	3400 nM
O=C(Nc1ccc(-c2ccc(C(F)(F)F)cc2)c2c1C(=O)NC2)c1ccccc1 [Example 210]	> 20000 nM
NC1CCN(c2ccc(C(=O)Nc3ccc(-c4ccccc4)c4c3C(=O)NC4)cc2)CC1 [Example 340]	680 nM
O=C(Nc1ccc(-c2ccc3ncccc3c2)c2c1C(=O)NC2)c1ccc(NCCN2CCCC2)cc1 [Example 385]	780 nM
COc1ccc(-c2ccc(NC(=O)Nc3ccccc3)c3c2CNC3=O)cc1 [Example 244]	4020 nM
COc1cccc(-c2ccc(NC(=O)c3ccc(F)cc3)c3c2CNC3=O)c1OC [Example 135]	140 nM
O=C(Nc1ccc(-c2ccccc2)c2c1C(=O)NC2)c1ccc(F)cc1F [Example 91]	> 20000 nM
